# TARGET_OF_ASSAY: Follicle Stimulating Hormone Receptor (FSHR) (Homo sapiens)
# Construct: HA (N)
# Sequence (P23945 18-695): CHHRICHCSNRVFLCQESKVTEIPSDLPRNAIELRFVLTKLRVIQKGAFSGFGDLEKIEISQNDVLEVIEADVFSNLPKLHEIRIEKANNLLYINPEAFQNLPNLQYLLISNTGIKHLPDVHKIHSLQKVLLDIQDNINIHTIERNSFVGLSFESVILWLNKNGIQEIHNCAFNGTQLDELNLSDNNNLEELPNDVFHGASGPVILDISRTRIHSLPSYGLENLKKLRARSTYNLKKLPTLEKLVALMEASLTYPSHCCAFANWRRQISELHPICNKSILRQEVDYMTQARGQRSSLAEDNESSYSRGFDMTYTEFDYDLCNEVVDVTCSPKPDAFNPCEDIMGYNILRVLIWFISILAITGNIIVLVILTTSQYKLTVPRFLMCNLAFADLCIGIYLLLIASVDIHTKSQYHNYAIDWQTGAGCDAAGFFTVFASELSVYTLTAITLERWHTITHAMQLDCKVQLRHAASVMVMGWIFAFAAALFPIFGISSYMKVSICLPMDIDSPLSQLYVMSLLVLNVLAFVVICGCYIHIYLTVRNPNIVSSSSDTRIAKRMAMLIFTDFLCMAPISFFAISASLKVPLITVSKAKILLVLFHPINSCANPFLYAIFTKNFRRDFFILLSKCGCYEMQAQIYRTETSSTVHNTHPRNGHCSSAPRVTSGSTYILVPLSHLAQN
# ASSAY_COMMENT: HTRF cAMP agonist assay, FSHR, transiently transfected CHO-K1 cells
# MEASUREMENT_CONDITIONS: CHO-K1 cells transiently expressing human FSHR, read-out: IC50 FSHR LANCE CAMP
QUANTITY_MEASURED: IC50 (nM)

Recorded IC50, per entry:
1) COc1cc2c(cc1-c1cncc(C(N)=O)c1)-c1c(c(C(=O)N(C)C3CCCC3)nn1-c1cc(Cl)cc(Cl)c1)CC2 :: 29.3
2) COc1cc2c(cc1-c1cncc(C(N)=O)c1)-c1c(c(C(=O)N3CCC[C@H]3C)nn1-c1cc(Cl)cc(Cl)c1)CC2 :: 17.4

A: COc1cc2c(cc1-c1cncc(C(N)=O)c1)-c1c(c(C(=O)N3CC(=O)NCC3(C)C)nn1-c1cc(Cl)cc(Cl)c1)CC2
B: CCn1nc(C(=O)N2CCOCC2(C)C)c2c1-c1cc(-c3cncc(C(N)=O)c3)c(OC)cc1CC2
C: COc1cc2c(cc1-c1cncc(C(N)=O)c1)-c1c(c(C(=O)N(CC(F)(F)F)CC(F)(F)F)nn1-c1cc(Cl)cc(Cl)c1)CC2
D: CC[C@H]1COCCN1C(=O)c1nn(-c2cc(Cl)cc(Cl)c2)c2c1CCc1cc(OC)c(-c3cncc(C(N)=O)c3)cc1-2
// ranking: key=IC50, reverse=True A ranking is expressed here by listing the labels in the requested order.
B, C, A, D
(B: 830 nM, C: 61.3 nM, A: 24.5 nM, D: 2.04 nM)
